Value source: paper PMC11964602

# Subject Of Test: SARS-CoV-2 M^pro (Severe acute respiratory syndrome coronavirus 2)
# Protocol Notes: biochemical
# Format: biochemical
# Protocol Conditions: 100 µM
Where no end group is shown, it is not given here.
Form field: M^pro inhibition (%) (one value per entry).
Endpoint Name: M^pro inhibition (%)

# Substance, Endpoint Name, Recorded Value
rows = [
    ("Ac-Tβ4_31-43: peptide metabolite of Ac-Tβ4, amino acids 31-43 (KETIEQEKQAGES; Thymosin beta-4; UniProt P62328 32-44, looked up, fragment)", "M^pro inhibition (%)", 1.88),
    ("Ac-Tβ4_17-43: peptide metabolite of Ac-Tβ4, amino acids 17-43 (LKKTETQEKNPLPSKETIEQEKQAGES; Thymosin beta-4; UniProt P62328 18-44, looked up, fragment)", "M^pro inhibition (%)", 25.16),
    ("Ac-Tβ4_1-15: peptide metabolite of Ac-Tβ4, amino acids 1-15 (Ac-SDKPDMAEIEKFDKS)", "M^pro inhibition (%)", 34.4),
    ("Ac-Tβ4_1-11: peptide metabolite of Ac-Tβ4, amino acids 1-11 (Ac-SDKPDMAEIEK; UniProt P62328 2-12, looked up, fragment)", "M^pro inhibition (%)", 1.25),
]
